Hey, just so you know, these numbers are from patent US10189841B2.

Each entry below carries its reported pIC50.
Biological target: USP1 (construct USP1 (I-785, GG670, 671AA)/UAF1 (I-677)-Flag) (Homo sapiens (Human), UniProt O94782, G670A/G671A)
Sequence (O94782 whole entry G670A/G671A): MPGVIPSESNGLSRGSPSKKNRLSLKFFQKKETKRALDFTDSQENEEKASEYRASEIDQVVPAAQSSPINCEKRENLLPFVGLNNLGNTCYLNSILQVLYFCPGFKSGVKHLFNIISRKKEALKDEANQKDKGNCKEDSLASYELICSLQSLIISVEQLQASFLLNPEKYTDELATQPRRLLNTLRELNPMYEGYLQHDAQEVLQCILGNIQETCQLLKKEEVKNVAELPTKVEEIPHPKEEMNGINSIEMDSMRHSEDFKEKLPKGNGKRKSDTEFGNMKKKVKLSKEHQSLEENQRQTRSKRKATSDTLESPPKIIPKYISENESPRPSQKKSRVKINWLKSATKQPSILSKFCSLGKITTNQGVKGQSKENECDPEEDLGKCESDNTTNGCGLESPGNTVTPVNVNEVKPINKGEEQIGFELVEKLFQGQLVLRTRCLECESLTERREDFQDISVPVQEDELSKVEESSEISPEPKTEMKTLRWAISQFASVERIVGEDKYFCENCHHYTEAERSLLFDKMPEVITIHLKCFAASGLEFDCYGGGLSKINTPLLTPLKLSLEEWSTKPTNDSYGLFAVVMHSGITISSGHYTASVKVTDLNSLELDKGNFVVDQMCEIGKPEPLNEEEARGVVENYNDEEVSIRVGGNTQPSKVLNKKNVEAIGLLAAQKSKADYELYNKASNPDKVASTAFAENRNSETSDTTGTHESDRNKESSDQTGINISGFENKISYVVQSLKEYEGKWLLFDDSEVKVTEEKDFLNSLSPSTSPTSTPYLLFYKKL
Sequence (Q8TAF3 whole entry partner): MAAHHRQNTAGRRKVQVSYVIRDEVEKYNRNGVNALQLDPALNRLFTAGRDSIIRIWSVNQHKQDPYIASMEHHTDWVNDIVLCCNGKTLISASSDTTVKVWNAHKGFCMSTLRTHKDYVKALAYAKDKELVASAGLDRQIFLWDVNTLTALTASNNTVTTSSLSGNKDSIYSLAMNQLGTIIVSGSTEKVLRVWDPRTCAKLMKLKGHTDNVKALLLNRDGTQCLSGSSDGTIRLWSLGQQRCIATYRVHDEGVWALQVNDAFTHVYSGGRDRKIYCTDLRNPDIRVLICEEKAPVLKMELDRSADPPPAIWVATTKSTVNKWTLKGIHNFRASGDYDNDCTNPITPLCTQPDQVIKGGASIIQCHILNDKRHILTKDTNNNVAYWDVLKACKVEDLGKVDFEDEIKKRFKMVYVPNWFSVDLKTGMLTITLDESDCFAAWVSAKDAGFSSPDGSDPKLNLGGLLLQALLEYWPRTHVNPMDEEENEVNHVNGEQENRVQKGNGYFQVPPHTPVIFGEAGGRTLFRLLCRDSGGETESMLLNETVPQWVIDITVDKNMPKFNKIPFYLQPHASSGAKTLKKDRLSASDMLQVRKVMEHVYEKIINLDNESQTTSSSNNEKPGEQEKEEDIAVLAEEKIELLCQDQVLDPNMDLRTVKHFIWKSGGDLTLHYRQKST
Assay: Ubiquitin-Rhodamine 110 assay for USP1 activity
Conditions: USP1/UAF1 25 pM, Ub-Rh110 25 nM, 30 min preincubation
pIC50: −log10 of the molar value.
Assay Readout: pIC50

• CC(C)c1ccccc1-c1ncc2c(n1)n(Cc1ccc(-c3ncn(C)n3)cc1)c(=O)n2C = 6.70 to 7.30
• Cc1cnc(-c2ccc(Cn3c(=O)[nH]c4cnc(-c5ccccc5C(C)C)nc43)cc2)n1C(C)C = > 7.30
• [2H]C([2H])([2H])n1cc(C(F)(F)F)nc1-c1ccc(Cn2c(=O)n(C([2H])([2H])[2H])c3cnc(-c4cccnc4C(C)C)nc32)cc1 = > 7.30
• CC(C)c1ccccc1-c1ncc2[nH]c(=O)n(Cc3ccc4c(c3)CCN(C)C4=O)c2n1 = > 7.30
• CC(C)c1ccccc1-c1ncc2c(n1)n(Cc1ccc(NS(=O)(=O)c3ccn(C)n3)cc1)c(=O)n2C = < 5.70
• CC(C)c1ncccc1-c1ncc2[nH]c(=O)n(Cc3ccc(-n4nc(C(F)(F)F)cc4N4CCOCC4)cc3)c2n1 = > 7.30
• Cn1cc(C(F)(F)F)nc1-c1ccc(Cn2c(=O)[nH]c3cnc(-c4ccccc4OC(F)(F)F)nc32)cc1 = > 7.30
• COc1ccc(-c2ncc3[nH]c(=O)n(Cc4ccc(-c5nc(C(F)(F)F)cn5C)cc4)c3n2)c(F)n1 = 6.70 to 7.30
• Cn1cc(C(F)(F)F)nc1-c1ccc(Cn2c(=O)[nH]c3cnc(-c4cccnc4OC4CCC4)nc32)cc1 = > 7.30
• Cc1scnc1-c1ccc(Cn2c(=O)n(C)c3cnc(-c4ccccc4C(C)C)nc32)cc1 = > 7.30
• CC(C)c1ccccc1-c1ncc2c(n1)n(Cc1ccc(OC3CCOCC3)cc1)c(=O)n2C = 5.70 to 6.70
• CC(C)c1ccccc1-c1ncc2[nH]c(=O)n(Cc3ccc(-c4nc(C(F)(F)F)cn4CCO)cc3)c2n1 = > 7.30
• Cc1cc(C)n(-c2cnc(Cn3c(=O)[nH]c4cnc(-c5ccccc5C(C)C)nc43)cn2)n1 = 6.70 to 7.30
• CCOc1ncccc1-c1ncc2[nH]c(=O)n(Cc3ccc(-n4cccn4)cc3)c2n1 = 5.70 to 6.70
